Provide the recorded melting point for the entries that follow.

Lookup result for CCC(CC)n1nnc2c(Nc3ccc(C(C)=O)cc3Br)nc(C)nc21 ; measured melting point: 153 to 154 °C

Lookup result for CCCCC(CC)n1nnc2c(Nc3ccc(C(C)C)cc3Br)nc(C)cc21 (racemic) ; measured melting point: 73 to 74 °C

Lookup result for CCC(CC)n1nnc2c(Nc3c(Br)cc(OC)cc3OC)nc(C)cc21 ; measured melting point: 166 to 167 °C

Lookup result for CCCCC(CC)n1nnc2c(Nc3c(C)cc(C)cc3C)nc(C)nc21 (racemic) ; measured melting point: 129 to 130.5 °C
